Give pIC50 for every item shown.
# study.system: Calcitonin gene-related peptide type 1 receptor (Homo sapiens, UniProt O60894+Q16602)
# Sequence (Q16602 whole entry, one chain of several): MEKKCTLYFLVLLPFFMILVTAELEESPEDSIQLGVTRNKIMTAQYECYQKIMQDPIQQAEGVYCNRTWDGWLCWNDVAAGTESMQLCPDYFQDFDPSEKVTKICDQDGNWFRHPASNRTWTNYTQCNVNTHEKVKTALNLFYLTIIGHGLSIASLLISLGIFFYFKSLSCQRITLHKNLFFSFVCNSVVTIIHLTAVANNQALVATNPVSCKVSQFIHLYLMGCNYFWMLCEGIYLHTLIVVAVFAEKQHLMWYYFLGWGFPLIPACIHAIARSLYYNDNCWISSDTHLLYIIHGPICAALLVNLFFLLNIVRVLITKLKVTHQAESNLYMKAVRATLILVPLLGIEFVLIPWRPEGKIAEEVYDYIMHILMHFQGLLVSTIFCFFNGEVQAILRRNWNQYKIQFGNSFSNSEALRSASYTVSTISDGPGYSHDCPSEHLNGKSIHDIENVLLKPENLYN
# assay.notes: Displacement of [I125]CGRP from CGRP receptor in human SK-N-MC cell membrane after 2 hrs by gamma or scintillation counting
# Format: cell membranes
Formally, pIC50 is defined as -log10 of the concentration c, with c in mol/L.

query: Return pIC50 (reported value) for this molecule: Cc1cc(CC(CC(=O)N2CCC(N3Cc4ccccc4NC3=O)CC2)c2ccc(CO)cn2)cc2cn[nH]c12 (configuration not stated)
result: 8.10

query: Return pIC50 (reported value) for this molecule: Cc1cc(CC(OC(=O)N2CCC(N3Cc4ccccc4NC3=O)CC2)c2cc(C=O)ccn2)cc2cn[nH]c12 (configuration not stated)
result: 9.68

query: Return pIC50 (reported value) for this molecule: COC(=O)c1ccnc(C(Cc2cc(C)c3[nH]ncc3c2)OC(=O)N2CCC(N3Cc4ccccc4NC3=O)CC2)c1 (configuration not stated)
result: 8.36

query: Return pIC50 (reported value) for this molecule: Cc1cc(CC(CC(=O)N2CCC(N3Cc4ccccc4NC3=O)CC2)c2ccc(CN3CCCCC3)cn2)cc2cn[nH]c12 (configuration not stated)
result: 8.74

query: Return pIC50 (reported value) for this molecule: Cc1cc(CC(OC(=O)N2CCC(N3Cc4ccccc4NC3=O)CC2)c2cccc(Br)n2)cc2cn[nH]c12 (configuration not stated)
result: 9.42

query: Return pIC50 (reported value) for this molecule: Cc1cc(CC(CC(=O)N2CCC(c3cc4ccccc4[nH]c3=O)CC2)c2ccccn2)cc2cn[nH]c12 (configuration not stated)
result: 7.62

query: Return pIC50 (reported value) for this molecule: Cc1cc(CC(OC(=O)N2CCC(c3cc4ccccc4[nH]c3=O)CC2)c2cc(C(=O)N(C)C)cc(Cl)n2)cc2cn[nH]c12 (configuration not stated)
result: 9.55

query: Return pIC50 (reported value) for this molecule: Cc1cc(CC(OC(=O)N2CCC(N3Cc4ccccc4NC3=O)CC2)c2cc(C#N)ccn2)cc2cn[nH]c12 (configuration not stated)
result: 8.52

query: Return pIC50 (reported value) for this molecule: Cc1cc(CC(NC(=O)N2CCC(N3Cc4ccccc4NC3=O)CC2)c2cccc(-c3ccccc3)n2)cc2cn[nH]c12 (configuration not stated)
result: 7.92

query: Return pIC50 (reported value) for this molecule: Cc1cc(CC(OC(=O)N2CCC(N3Cc4ccccc4NC3=O)CC2)c2ccccn2)cc2c(CN3CCCC3)n[nH]c12 (configuration not stated)
result: 8.17

query: Return pIC50 (reported value) for this molecule: Cc1cc(CC(NC(=O)N2CCC(N3Cc4ccccc4NC3=O)CC2)c2cc3ccccc3cn2)cc2cn[nH]c12 (configuration not stated)
result: 9.09

query: Return pIC50 (reported value) for this molecule: Cc1cc(CC(CC(=O)N2CCC(N3Cc4cccc(F)c4NC3=O)CC2)c2ccccn2)cc2cn[nH]c12 (configuration not stated)
result: 7.46

query: Return pIC50 (reported value) for this molecule: Cc1cc(CC(OC(=O)N2CCC(N3Cc4ccccc4NC3=O)CC2)c2ccccn2)cc2c(Cl)n[nH]c12 (configuration not stated)
result: 9.41

query: Return pIC50 (reported value) for this molecule: Cc1cc(CC(OC(=O)N2CCC(N3Cc4ccccc4NC3=O)CC2)c2cc(CN3CCCCC3)ccn2)cc2cn[nH]c12 (configuration not stated)
result: 10.00

query: Return pIC50 (reported value) for this molecule: Cc1ccc(C(CC(=O)N2CCC(N3Cc4ccccc4NC3=O)CC2)Cc2cc(C)c3[nH]ncc3c2)nc1 (configuration not stated)
result: 7.92

query: Return pIC50 (reported value) for this molecule: Cc1cc(CC(CC(=O)N2CCC(N3Cc4ccccc4NC3=O)CC2)c2ccc(C=O)cn2)cc2cn[nH]c12 (configuration not stated)
result: 8.96

query: Return pIC50 (reported value) for this molecule: Cc1cc(CC(CC(=O)N2CCC(N3Cc4ccccc4NC3=O)CC2)c2ccccn2)cc2cn[nH]c12 (configuration not stated)
result: 8.07

query: Return pIC50 (reported value) for this molecule: Cc1cc(CC(OC(=O)N2CCC(N3Cc4ccccc4NC3=O)CC2)c2ccccn2)cc2c(Br)n[nH]c12 (configuration not stated)
result: 9.48

query: Return pIC50 (reported value) for this molecule: Cc1cc(CC(OC(=O)N2CCC(N3Cc4ccccc4NC3=O)CC2)c2cc(-c3ccncc3)ccn2)cc2cn[nH]c12 (configuration not stated)
result: 9.57

query: Return pIC50 (reported value) for this molecule: `Cc1cc(C[C@@H](OC(=O)N2CCC(c3cc4ccccc4[nH]c3=O)CC2)c2cc(C(=O)N(C)C)cc(Cl)n2)cc2cn[nH]c12`
result: 10.11

query: Return pIC50 (reported value) for this molecule: Cc1cc(CC(OC(=O)N2CCC(c3cc4ccccc4[nH]c3=O)CC2)c2cc(CN3CCCCCC3)ccn2)cc2cn[nH]c12 (configuration not stated)
result: 10.02

query: Return pIC50 (reported value) for this molecule: Cc1cccnc1C(CC(=O)N1CCC(N2Cc3ccccc3NC2=O)CC1)Cc1cc(C)c2[nH]ncc2c1 (configuration not stated)
result: 8.36

query: Return pIC50 (reported value) for this molecule: Cc1cc(CC(OC(=O)N2CCC(N3Cc4ccccc4NC3=O)CC2)c2cc(C(=O)O)ccn2)cc2cn[nH]c12 (configuration not stated)
result: 7.52

query: Return pIC50 (reported value) for this molecule: Cc1cc(CC(OC(=O)N2CCC(N3Cc4ccccc4NC3=O)CC2)c2ccccn2)cc2cn[nH]c12 (configuration not stated)
result: 8.82

query: Return pIC50 (reported value) for this molecule: Cc1cc(CC(OC(=O)N2CCC(n3c(=O)[nH]c4ncccc43)CC2)c2cc(C(=O)N(C)C)cc(Cl)n2)cc2cn[nH]c12 (configuration not stated)
result: 10.15

query: Return pIC50 (reported value) for this molecule: CCc1ccnc(C(CC(=O)N2CCC(N3Cc4ccccc4NC3=O)CC2)Cc2cc(C)c3[nH]ncc3c2)c1 (configuration not stated)
result: 8.00

query: Return pIC50 (reported value) for this molecule: Cc1cc(CC(OC(=O)N2CCC(N3Cc4ccccc4NC3=O)CC2)c2ccccn2)cc2c(C=O)n[nH]c12 (configuration not stated)
result: 8.89

query: Return pIC50 (reported value) for this molecule: Cc1cc(CC(OC(=O)N2CCC(c3cc4ccccc4[nH]c3=O)CC2)c2ccccn2)cc2cn[nH]c12 (configuration not stated)
result: 7.92

query: Return pIC50 (reported value) for this molecule: Cc1cc(CC(OC(=O)N2CCC(N3Cc4ccccc4NC3=O)CC2)c2ccc3ccccc3n2)cc2cn[nH]c12 (configuration not stated)
result: 8.85

query: Return pIC50 (reported value) for this molecule: Cc1cc(CC(OC(=O)N2CCC(N3Cc4ccccc4NC3=O)CC2)c2cc(CO)ccn2)cc2cn[nH]c12 (configuration not stated)
result: 8.70

query: Return pIC50 (reported value) for this molecule: Cc1cccc(C(Cc2cc(C)c3[nH]ncc3c2)NC(=O)N2CCC(N3Cc4ccccc4NC3=O)CC2)n1 (configuration not stated)
result: 8.42

query: Return pIC50 (reported value) for this molecule: Cc1cc(CC(OC(=O)N2CCC(N3Cc4ccccc4NC3=O)CC2)c2cc3ccccc3cn2)cc2cn[nH]c12 (configuration not stated)
result: 9.34

---

Give pKi for every item shown.
# study.system: Calcitonin gene-related peptide type 1 receptor (Homo sapiens, UniProt O60894+Q16602)
# assay.notes: Antagonist activity at CGRP receptor in human SK-N-MC cells assessed as inhibition of CGRP-stimulated cAMP production in presence of plasma
# Format: functional, cell-based
Formally, pKi is defined as -log10 of the concentration c, with c in mol/L.

query: Return pKi (reported value) for this compound: Cc1cc(CC(OC(=O)N2CCC(c3cc4ccccc4[nH]c3=O)CC2)c2cc(C(=O)N(C)C)cc(Cl)n2)cc2cn[nH]c12 (configuration not stated)
result: 8.48

query: Return pKi (reported value) for this compound: Cc1cc(CC(OC(=O)N2CCC(n3c(=O)[nH]c4ncccc43)CC2)c2cc(C(=O)N(C)C)cc(Cl)n2)cc2cn[nH]c12 (configuration not stated)
result: 9.74

---

# Test system: Liver microsomes
# assay.notes: Metabolic stability in human liver microsomes
# Format: ADME, Microsome
reported.property: Stability

# example entries with known answers
molecule="Cc1cc(CC(OC(=O)N2CCC(c3cc4ccccc4[nH]c3=O)CC2)c2cc(CN3CCCCC3)ccn2)cc2cn[nH]c12 (stereo not given)" study_system="Liver microsomes" reported_property=Stability readout_value=Unstable
molecule="Cc1cc(CC(OC(=O)N2CCC(N3Cc4ccccc4NC3=O)CC2)c2ccc3ccccc3n2)cc2cn[nH]c12 (stereo not given)" study_system="Liver microsomes" reported_property=Stability readout_value=Unstable
molecule="Cc1cc(CC(OC(=O)N2CCC(N3Cc4ccccc4NC3=O)CC2)c2cc(CO)ccn2)cc2cn[nH]c12 (stereo not given)" study_system="Liver microsomes" reported_property=Stability readout_value=Unstable
molecule="Cc1cc(CC(OC(=O)N2CCC(N3Cc4ccccc4NC3=O)CC2)c2cc(C(=O)N3CCCCC3)ccn2)cc2cn[nH]c12 (stereo not given)" study_system="Liver microsomes" reported_property=Stability readout_value=Unstable

query: Return Stability (reported value) for this molecule: Cc1cc(CC(OC(=O)N2CCC(N3Cc4ccccc4NC3=O)CC2)c2ccccn2)cc2cn[nH]c12 (stereo not given)
result: Unstable

query: Return Stability (reported value) for this molecule: Cc1cc(CC(OC(=O)N2CCC(N3Cc4ccccc4NC3=O)CC2)c2cc(-c3ccncc3)ccn2)cc2cn[nH]c12 (stereo not given)
result: Unstable

query: Return Stability (reported value) for this molecule: Cc1cc(CC(OC(=O)N2CCC(N3Cc4ccccc4NC3=O)CC2)c2cc(C(=O)O)ccn2)cc2cn[nH]c12 (stereo not given)
result: Unstable
